Test system: MCF-7 breast cancer cells
Assay: Cell proliferation assay (MTS), MCF-7
Type: cell-based, human
Conditions: 3 days treatment, listed as RM-581-102
test.readout: IC50

Recorded IC50 of `C#C[C@]1(O)CC[C@H]2[C@@H]3CCc4cc(OC)c(N5CCN(C(=O)[C@@H]6CCCN6C(=O)c6ccc7ccccc7n6)CC5)cc4[C@H]3CC[C@@]21C` , please.
1.1 µM

====

Assay: in vivo
Conditions: female, Balb/c, mouse, po, 60 mg/kg
test.readout: AUC(0-t) (ng·h/mL)
I only need the number, in ng·h/mL, no unit after it.

Recorded AUC(0-t) of C#C[C@]1(O)CC[C@H]2[C@@H]3CCc4cc(OC)c(N5CCN(C(=O)[C@@H]6CCCN6C(=O)c6ccc7ccccc7n6)CC5)cc4[C@H]3CC[C@@]21C [RM-581] , please.
5540
